Source of measurements: the Human Domainome abundance scans (Beltran et al. 2025)

B1: COUP transcription factor 1, residues 83 to 159; numbered along this chain, P10589 (parent)
chain: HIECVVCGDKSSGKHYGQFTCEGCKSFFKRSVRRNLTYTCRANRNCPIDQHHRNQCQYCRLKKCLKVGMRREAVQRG

# Variants of: B1
# experiment summary: abundance fitness (aPCA) (normalised: wild type 0, dead -1); higher = more abundant; growth selection in yeast, the domain comes from the species named
# assay context: Homo sapiens
observable: abundance fitness

Solved cases (3 shown):
Inquiry: Request the reported abundance fitness associated with `F27T`
Reply text: -1.1

Inquiry: Quick one: `H52W`
Reply text: -0.263

Inquiry: Please answer likewise for `R71L`
Reply text: -0.039

Others:
Inquiry: Dear colleague, I am looking for the recorded abundance fitness of the following variant: `F28V`
Reply text: -0.807

Inquiry: How about this variant: `R71H`
Reply text: -0.103

Inquiry: Query `C59M` next
Reply text: -0.809

Inquiry: // same read-out, input: `A42Y`
Reply text: 0.109

Inquiry: Repeat for the following variant: `L36S`
Reply text: -0.147

Inquiry: Request: `F28R`
Reply text: -0.698

Inquiry: Ok, now `C64D`
Reply text: -0.893

Inquiry: Check `Y16G` too.
Reply text: -0.157

Inquiry: Entry `R33K` please
Reply text: -0.022

Inquiry: Please do the same for `E22F` as well.
Reply text: -0.226

Inquiry: Also need `T37C` , thanks.
Reply text: -0.048

Inquiry: Continue with `A73T`
Reply text: -0.034
